assay: Cytotoxicity on L929 fibroblasts (resazurin); details: mouse
Reported values of CC50 at 24 h for individual entries
observable: CC50 at 24 h

>>> result("CC(=O)O[C@@H]1[C@@H](OC(C)=O)[C@H](OC(C)=O)CO[C@H]1n1cc(CCC(=O)Oc2c3c(c4ccccc4c2OC(=O)CCc2cn([C@@H]4OC[C@@H](OC(C)=O)[C@H](OC(C)=O)[C@H]4OC(C)=O)nn2)OC(C)(C)C=C3)nn1 [Compound 2e]")
"> 256 µM"
>>> result("CC(=O)O[C@@H]1[C@@H](OC(C)=O)[C@H](OC(C)=O)CO[C@H]1n1cc(CCCC(=O)Oc2c3c(c4ccccc4c2OC(=O)CCCc2cn([C@@H]4OC[C@@H](OC(C)=O)[C@H](OC(C)=O)[C@H]4OC(C)=O)nn2)OC(C)(C)C=C3)nn1 [Compound 3e]")
"> 256 µM"
